percent inhibition of Factor XI overview
system: human Factor XI mRNA; experiment: Dose-dependent antisense inhibition in HepG2 cells, lipofectin (Example 2); type: cell-based; conditions: 37.5 nM, approximately 16 hours
In the oligonucleotide strings, read from the 5' end, every base follows the letter of its sugar. An asterisk marks phosphorothioate; unmarked linkages are phosphodiester. Other units and linkages are bracketed, terminal groups are in braces. A string of capitals states the bases alone. e = 2'-O-(2-methoxyethyl) (MOE); [5mC] = 5-methylcytosine; d = 2'-deoxy (DNA)
recorded metric: percent inhibition of Factor XI

[[record]]
substance = "412212 (antisense e[5mC]*e[5mC]*eG*eG*eG*dA*dT*dG*dA*dT*dG*dA*dG*dT*dG*e[5mC]*eA*eG*eA*eT) [compound 412212]"
value_reported = "59%"

[[record]]
substance = "413469 (antisense eT*eG*e[5mC]*e[5mC]*e[5mC]*dT*dT*d[5mC]*dA*dT*dG*dT*d[5mC]*dT*dA*eG*eG*eT*e[5mC]*e[5mC]) [compound 413469]"
value_reported = "53%"

[[record]]
substance = "413482 (antisense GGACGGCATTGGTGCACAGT; sugars from the 5' end e5 d10 e5, backbone and methylation of C not given here) [compound 413482]"
value_reported = "59%"

[[record]]
substance = "412225 (antisense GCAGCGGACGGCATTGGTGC; sugars from the 5' end e5 d10 e5, backbone and methylation of C not given here) [compound 412225]"
value_reported = "65%"


* * *

test system: human Factor XI mRNA; assay: Antisense inhibition in HepG2 cells by microwalk gapmers, 75 nM, lipofectin (Example 3); format: cell-based; conditions: HepG2 cells, 75 nM, oligonucleotides targeted to nucleobases 738 to 762 of SEQ ID NO: 1
In the oligonucleotide strings, read from the 5' end, every base follows the letter of its sugar. An asterisk marks phosphorothioate; unmarked linkages are phosphodiester. Other units and linkages are bracketed, terminal groups are in braces. A string of capitals states the bases alone. e = 2'-O-(2-methoxyethyl) (MOE); [5mC] = 5-methylcytosine; d = 2'-deoxy (DNA)
% inhibition of human Factor XI mRNA levels overview
recorded metric: % inhibition of human Factor XI mRNA levels (%)

[[record]]
substance = "416833 (antisense eT*e[5mC]*eA*eT*e[5mC]*d[5mC]*dG*dT*dG*d[5mC]*dA*dT*d[5mC]*dT*dT*eT*e[5mC]*eT*eT*eG) [compound 416833]"
value_reported = 65

[[record]]
substance = "416834 (antisense eG*eT*e[5mC]*eA*eT*d[5mC]*d[5mC]*dG*dT*dG*d[5mC]*dA*dT*d[5mC]*dT*eT*eT*e[5mC]*eT*eT) [compound 416834]"
value_reported = 58

[[record]]
substance = "416901 (antisense e[5mC]*eA*eT*d[5mC]*d[5mC]*dG*dT*dG*d[5mC]*dA*dT*d[5mC]*dT*dT*dT*d[5mC]*dT*eT*eG*eG) [compound 416901]"
value_reported = 65


* * *

percent inhibition of Factor XI mRNA, relative to untreated control cells overview
system: human Factor XI mRNA; assay: Dose-dependent inhibition in HepG2 cells, lipofectin (Example 4); format: cell-based; details: 9.375 nM, 16 hours
In the oligonucleotide strings, read from the 5' end, every base follows the letter of its sugar. An asterisk marks phosphorothioate; unmarked linkages are phosphodiester. Other units and linkages are bracketed, terminal groups are in braces. A string of capitals states the bases alone. e = 2'-O-(2-methoxyethyl) (MOE); [5mC] = 5-methylcytosine; d = 2'-deoxy (DNA)
recorded metric: percent inhibition of Factor XI mRNA, relative to untreated control cells

[[record]]
substance = "416941 (antisense eG*eG*e[5mC]*dA*dG*d[5mC]*dG*dG*dA*d[5mC]*dG*dG*d[5mC]*dA*dT*dT*dG*eG*eT*eG) [compound 416941]"
value_reported = "33%"

[[record]]
substance = "417000 (antisense eT*eG*d[5mC]*dA*d[5mC]*dA*dG*dT*dT*dT*d[5mC]*dT*dG*dG*d[5mC]*eA*eG*eG*e[5mC]*e[5mC]) [compound 417000]"
value_reported = "35%"

[[record]]
substance = "416969 (antisense eG*e[5mC]*d[5mC]*d[5mC]*dT*dT*d[5mC]*dA*dT*dG*dT*d[5mC]*dT*dA*dG*eG*eT*e[5mC]*e[5mC]*eA) [compound 416969]"
value_reported = "17%"


* * *

percent inhibition of Factor XI mRNA, relative to untreated control cells overview
system: human Factor XI mRNA; test: Dose-dependent inhibition in HepG2 cells, lipofectin (Example 4); type: cell-based; conditions: 18.75 nM, 16 hours
In the oligonucleotide strings, read from the 5' end, every base follows the letter of its sugar. An asterisk marks phosphorothioate; unmarked linkages are phosphodiester. Other units and linkages are bracketed, terminal groups are in braces. A string of capitals states the bases alone. e = 2'-O-(2-methoxyethyl) (MOE); [5mC] = 5-methylcytosine; d = 2'-deoxy (DNA)
recorded metric: percent inhibition of Factor XI mRNA, relative to untreated control cells (%)

[[record]]
substance = "416838 (antisense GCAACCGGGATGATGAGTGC; 5-10-5 gapmer, wing sugar chemistry not given here, further chemistry not given here) [compound 416838]"
test_system = "human Factor XI mRNA"
value_reported = 51

[[record]]
substance = "416973 (antisense eT*eT*dA*dT*dG*d[5mC]*d[5mC]*d[5mC]*dT*dT*d[5mC]*dA*dT*dG*dT*e[5mC]*eT*eA*eG*eG) [compound 416973]"
test_system = "human Factor XI mRNA"
value_reported = 75

[[record]]
substance = "416827 (antisense eT*eA*eT*eG*e[5mC]*d[5mC]*d[5mC]*dT*dT*d[5mC]*dA*dT*dG*dT*d[5mC]*eT*eA*eG*eG*eT) [compound 416827]"
test_system = "human Factor XI mRNA"
value_reported = 42

[[record]]
substance = "413467 (antisense eG*eG*eT*e[5mC]*e[5mC]*dA*d[5mC]*dA*dT*dA*dA*dA*dT*dG*dT*e[5mC]*eT*eT*eT*eG) [compound 413467]"
test_system = "human Factor XI mRNA"
value_reported = 51

[[record]]
substance = "413474 (antisense eA*eG*e[5mC]*eA*eA*d[5mC]*d[5mC]*dG*dG*dG*dA*dT*dG*dA*dT*eG*eA*eG*eT*eG) [compound 413474]"
test_system = "human Factor XI mRNA"
value_reported = 44

[[record]]
substance = "416989 (antisense eG*eA*dG*dA*dT*dT*d[5mC]*dT*dT*dT*dG*dG*dG*d[5mC]*d[5mC]*eA*eT*eT*e[5mC]*e[5mC]) [compound 416989]"
test_system = "human Factor XI mRNA"
value_reported = 41


* * *

tested on: human Factor XI mRNA; assay: Antisense inhibition in HepG2 cells by microwalk gapmers, 75 nM, lipofectin (Example 3); format: cell-based; conditions: HepG2 cells, 75 nM, oligonucleotides targeted to nucleobases 1062 to 1091 of SEQ ID NO: 1
In the oligonucleotide strings, read from the 5' end, every base follows the letter of its sugar. An asterisk marks phosphorothioate; unmarked linkages are phosphodiester. Other units and linkages are bracketed, terminal groups are in braces. A string of capitals states the bases alone. e = 2'-O-(2-methoxyethyl) (MOE); [5mC] = 5-methylcytosine; d = 2'-deoxy (DNA)
recorded metric: % inhibition of human Factor XI mRNA levels (%)

[[record]]
substance = "416839 (antisense eG*eA*eT*eT*e[5mC]*dT*dT*dT*dG*dG*dG*d[5mC]*d[5mC]*dA*dT*eT*e[5mC]*e[5mC]*eT*eG) [compound 416839]"
test_system = "human Factor XI mRNA"
value_reported = 89

[[record]]
substance = "416993 (antisense e[5mC]*eT*dT*dT*dG*dA*dG*dA*dT*dT*d[5mC]*dT*dT*dT*dG*eG*eG*e[5mC]*e[5mC]*eA) [compound 416993]"
test_system = "human Factor XI mRNA"
value_reported = 91

[[record]]
substance = "416911 (antisense eA*eG*eA*dT*dT*d[5mC]*dT*dT*dT*dG*dG*dG*d[5mC]*d[5mC]*dA*dT*dT*e[5mC]*e[5mC]*eT) [compound 416911]"
test_system = "human Factor XI mRNA"
value_reported = 90

[[record]]
substance = "416989 (antisense eG*eA*dG*dA*dT*dT*d[5mC]*dT*dT*dT*dG*dG*dG*d[5mC]*d[5mC]*eA*eT*eT*e[5mC]*e[5mC]) [compound 416989]"
test_system = "human Factor XI mRNA"
value_reported = 88


* * *

test system: human Factor XI mRNA; test: Dose-dependent inhibition and IC50 in HepG2 cells, electroporation (Example 15); type: cell-based; conditions: electroporation, 3,333.33 nM
In the oligonucleotide strings, read from the 5' end, every base follows the letter of its sugar. An asterisk marks phosphorothioate; unmarked linkages are phosphodiester. Other units and linkages are bracketed, terminal groups are in braces. A string of capitals states the bases alone. e = 2'-O-(2-methoxyethyl) (MOE); [5mC] = 5-methylcytosine; d = 2'-deoxy (DNA)
recorded metric: percent inhibition of Factor XI mRNA

[[record]]
substance = "445505 (antisense e[5mC]*eG*eG*e[5mC]*eA*eT*dT*dG*dG*dT*dG*d[5mC]*dA*d[5mC]*eA*eG*eT*eT*eT*e[5mC]) [compound 445505]"
recorded_metric = "percent inhibition of Factor XI mRNA"
value_reported = "59%"

[[record]]
substance = "445498 (antisense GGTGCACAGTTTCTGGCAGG; 6-8-6 gapmer chemistry, chemistry not fully specified) [compound 445498]"
recorded_metric = "percent inhibition of Factor XI mRNA"
value_reported = "50%"

[[record]]
substance = "445531 (antisense eG*eG*e[5mC]*eA*eT*dT*dG*dG*dT*dG*d[5mC]*dA*d[5mC]*eA*eG*eT*eT*eT) [compound 445531]"
recorded_metric = "percent inhibition of Factor XI mRNA"
value_reported = "61%"

